- test_summary: Degradation of the active stereoisomer S,S at 40° C. and 75% R.H.
- Format: physicochemical
- condition_label: 180 days
Recorded percentage of active S,S stereoisomer remaining values for a group of compounds are listed next.
recorded_metric: percentage of active S,S stereoisomer remaining

compound | reading
C[S+](CCC(N)C(=O)[O-])C[C@H]1O[C@@H](n2cnc3c(N)ncnc32)[C@H](O)[C@@H]1O.Cl.Cl.O=S(=O)([O-])[O-].[Mg+2] (stereo partly shown) [SAMe•2.0HCl•1.0MgSO4] | 73.3%
C[S+](CCC(N)C(=O)[O-])C[C@H]1O[C@@H](n2cnc3c(N)ncnc32)[C@H](O)[C@@H]1O.O=S(=O)(O)O.O=S(=O)(O)O.O=S(=O)([O-])[O-].[Mg+2] (stereo partly shown) [SAMe•2.0H2SO4•1.0Mg2SO4•0.4H2O] | 75.8%
C[S+](CCC(N)C(=O)[O-])C[C@H]1O[C@@H](n2cnc3c(N)ncnc32)[C@H](O)[C@@H]1O.C[S+](CCC(N)C(=O)[O-])C[C@H]1O[C@@H](n2cnc3c(N)ncnc32)[C@H](O)[C@@H]1O.Cl.[Cl-].[Cl-].[Mg+2] (stereo partly shown) [SAMe•0.5HCl•0.5MgCl2] | 76.6%
C[S+](CCC(N)C(=O)[O-])C[C@H]1O[C@@H](n2cnc3c(N)ncnc32)[C@H](O)[C@@H]1O.C[S+](CCC(N)C(=O)[O-])C[C@H]1O[C@@H](n2cnc3c(N)ncnc32)[C@H](O)[C@@H]1O.O=S(=O)(O)O.O=S(=O)([O-])[O-].[Mg+2] (stereo partly shown) [SAMe•0.5H2SO4•0.5Mg2SO4•0.4H2O] | 78.6%
C[S+](CCC(N)C(=O)[O-])C[C@H]1O[C@@H](n2cnc3c(N)ncnc32)[C@H](O)[C@@H]1O.Cl.Cl.[Cl-].[Cl-].[Mg+2] (stereo partly shown) [SAMe•2.0HCl•1.0MgCl2] | 78.2%
C[S+](CCC(N)C(=O)[O-])C[C@H]1O[C@@H](n2cnc3c(N)ncnc32)[C@H](O)[C@@H]1O.C[S+](CCC(N)C(=O)[O-])C[C@H]1O[C@@H](n2cnc3c(N)ncnc32)[C@H](O)[C@@H]1O.O=S(=O)(O)O.[Ca+2].[Cl-].[Cl-] (stereo partly shown) [SAMe•0.5H2SO4•0.5CaCl2] | 77.6%
C[S+](CCC(N)C(=O)[O-])C[C@H]1O[C@@H](n2cnc3c(N)ncnc32)[C@H](O)[C@@H]1O.O=S(=O)(O)O.O=S(=O)(O)O.[Ca+2].[Cl-].[Cl-] (stereo partly shown) [SAMe•2.0H2SO4•1.0CaCl2] | 75.3%
C[S+](CCC(N)C(=O)[O-])C[C@H]1O[C@@H](n2cnc3c(N)ncnc32)[C@H](O)[C@@H]1O.C[S+](CCC(N)C(=O)[O-])C[C@H]1O[C@@H](n2cnc3c(N)ncnc32)[C@H](O)[C@@H]1O.O=S(=O)(O)O.[Cl-].[Cl-].[Mg+2] (stereo partly shown) [SAMe•0.5H2SO4•0.5MgCl2] | 77.6%
C[S+](CCC(N)C(=O)[O-])C[C@H]1O[C@@H](n2cnc3c(N)ncnc32)[C@H](O)[C@@H]1O.C[S+](CCC(N)C(=O)[O-])C[C@H]1O[C@@H](n2cnc3c(N)ncnc32)[C@H](O)[C@@H]1O.Cl.O=S(=O)([O-])[O-].[Mg+2] (stereo partly shown) [SAMe•0.5HCl•0.5MgSO4] | 72.6%
C[S+](CCC(N)C(=O)[O-])C[C@H]1O[C@@H](n2cnc3c(N)ncnc32)[C@H](O)[C@@H]1O.O=S(=O)(O)O.O=S(=O)(O)O.[Cl-].[Cl-].[Mg+2] (stereo partly shown) [SAMe•2.0H2SO4•1.0MgCl2] | 75.3%
